TEST NAME: NCI Yeast Anticancer Drug Screen. Data for the rad14 strain (AID 159);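 also: 0% = growth of vehicle-treated control cultures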
EXPERIMENTAL PARAMETERS: S. cerevisiae rad14 strain growth inhibition; at 3.7 µM; hits give high values
Compounds without any hit were thinned out: in the full panel of roughly 79,000, 15% have a hit.
growth inhibition reference
Write down the numeric answer in % and omit the unit.

| MOLECULE | growth inhibition, % |
| --- | --- |
| Cc1ccc2nc3sc(=O)sc3nc2c1 | 33 |
| Oc1c(Br)cc(Br)cc1Br | 3 |
| Cn1cnc(N)c1C(=N)[Se] | 15 |
| CN(CCc1ccc(Br)cc1)CCN1CCCCC1 | 49 |
| O=C1C2CC(Cl)C(SSC3CC4C(=O)N(SC(Cl)(Cl)C(Cl)Cl)C(=O)C4CC3Cl)CC2C(=O)N1SC(Cl)(Cl)C(Cl)Cl (stereo not drawn) | 96 |

Query string: GET /values?readout=growth inhibition&item= Nc1nc(-c2ccccc2)c(-c2ccccc2)[se]1
Result string: 3

Query string: Record: O=C1NC(=S)NC(=O)C1=Cc1ccc([N+](=O)[O-])o1
Result string: -10

Query string: For CCC1(O)C(=O)OCc2c1cc1n(c2=O)Cc2c-1nc1ccccc1c2OC (stereo not drawn) then?
Result string: 17

Query string: Now the same for Cc1nc2ccccc2cc1C[N+]12CN3CN(CN(C3)C1)C2
Result string: 6

Query string: Could you do the same for O=[N+]([O-])c1ccc(-n2nc3ccc4c(no[n+]4[O-])c3[n+]2[O-])c([N+](=O)[O-])c1 , please?
Result string: -1

Query string: Request: COc1cc(C2c3cc4c(cc3[C@@H](Nc3ccc(N)cc3)C3COC(=O)[C@H]23)OCO4)cc(OC)c1O (stereo partly drawn)
Result string: 71

====

TEST NAME: NCI Yeast Anticancer Drug Screen. Data for the mec2-1 strain (AID 157)
EXPERIMENTAL PARAMETERS: S. cerevisiae mec2-1 strain, at 50.0 µM, hits give high values
The panel holds about 79,000 compounds, 15% with a hit somewhere; the sample as a whole holds those more often.
Measured growth inhibition, listed per entry for reference.
I only need the number, in %, no unit after it.

| COMPOUND | growth inhibition, % |
| --- | --- |
| CCC(C)(c1ccc(O)cc1)c1ccc(O)cc1 | 99.5 |
| S=P(S)(Oc1ccccc1)Oc1ccccc1 | 77.7 |
| CC(=O)C1CCC2C3CCC4=CC(=[N+]5CCCCC5)CCC4(C)C3CCC12C (stereo not given) | 96.4 |
| CC(=O)OC(C)(C)/C=C/C(=O)[C@](C)(O)[C@H]1[C@H](O)C[C@@]2(C)[C@@H]3CC=C4[C@@H](C[C@H](O)[C@H](O)C4(C)C)[C@]3(C)C(=O)C[C@]12C | 93.5 |

Now look at this one.
Query string: Report growth inhibition for CC1=C(N2CC2)C(=O)c2ccccc2C1=O please.
Result string: 19.8

====

The reader will find reported growth inhibition values listed item by item below.
TEST NAME: NCI Yeast Anticancer Drug Screen. Data for the mec2-1 strain (AID 157)
EXPERIMENTAL PARAMETERS: S. cerevisiae mec2-1 strain, at 50.0 µM, hits give high values
This is part of a sample that, as a whole, favours compounds with a hit. Of some 79,000 tested, about 15% had one in any assay.
Numbers only; they are read as %.

Consider the worked cases shown below.
| COMPOUND | UNIT SYMBOL | REPORTED RESULT |
| --- | --- | --- |
| NCC(O)c1cccc(O)c1 (stereo unspecified) | % | 40.2 |
| Cc1ccc(C(=O)CCl)o1 | % | 99.7 |
| O=c1c2ccccc2[se]n1-c1cccnc1 | % | -6.2 |
| CC1CCCN(CCc2ccccc2)CC1 (stereo unspecified) | % | 20.9 |

Query string: State the recorded growth inhibition for this entry: Cc1cccc(NC(=O)CBr)c1
Result string: 99.7

Query string: Queued: CCOC(=O)NC(=S)[S][Sb]([S]C(=S)NC(=O)OCC)[S]c1nc2ccc(N=Nc3ccc(NS(=O)(=O)c4ccc(NC(=O)C(N5CC5)(N5CC5)N5CC5)cc4)cc3)cc2s1
Result string: 99.6
